tgt: Serine/threonine-protein kinase mTOR (Homo sapiens) (UniProt P42345)
assay-notes: Inhibition of mTOR signaling pathway in human Huh7.5 cells infected with FLAG-tagged HCV genotype 2a JFH-1 assessed as reduction in ratio of viral NS3 to cellular GAPDH protein level up to 50 uM after 72 hrs by Western blot analysis
Format: cell-based
Active and inactive are the calls of the source. The calls are words filed in the database; no cut-off is given here.
Give one outcome, nothing more. List: true = active, false = inactive

COc1cc(-c2cc(=O)c3cc(C)cc([N+](=O)[O-])c3o2)cc(OC)c1OC: false

### Prompt Hey, what did the test say about "COc1cc(C#CC(=O)c2cc(Cl)cc(Cl)c2O)cc(OC)c1OC" ?
### Response true

### Prompt Hey, what did the test say about "COc1ccc(C#CC(=O)c2cc(Cl)cc(Cl)c2O)cc1OC" ?
### Response true

### Prompt Hey, what did the test say about "COc1ccc(-c2oc3c(Br)cc(Br)cc3c(=O)c2O)cc1OC" ?
### Response false
